IC50 data for Inosine-5'-monophosphate dehydrogenase 2 (Homo sapiens, UniProt P12268) follow.
Quantity measured: IC50 (nM)

NC(=O)c1csc([C@@H]2O[C@H](COP(=O)(O)C(F)(F)P(=O)(O)OC[C@@H]3O[C@H](n4cnc5c(N)ncnc54)[C@H](F)[C@H]3O)[C@@H](O)[C@H]2O)n1; 800

(a) NC(=O)c1csc([C@@H]2O[C@H](COP(=O)(O)CP(=O)(O)OC[C@@H]3O[C@H](n4cnc5c(N)ncnc54)[C@@H](O)[C@H]3O)[C@@H](O)[C@H]2O)n1
(b) NC(=O)c1csc([C@@H]2O[C@H](COP(=O)(O)OP(=O)(O)OC[C@@H]3O[C@H](n4cnc5c(N)ncnc54)[C@@H](O)[C@H]3F)[C@@H](O)[C@H]2O)n1
Param pair: a , b . Output: the one whose IC50 is numerically greater. Response format: the label of the selected entry.
b

###

Test system: K562
Experiment: The ability to induce differentiation in K562 cells was estimated by determining the fraction of benzidine positive cells converted following incubation with the compound.
Format: functional, Homo sapiens
Measured Positive cells, listed per entry for reference.
Report the figure in % without appending any unit label.

Which measured Positive cells value corresponds to `NC(=O)c1csc([C@@H]2O[C@H](COP(=O)(O)OP(=O)(O)OC[C@@H]3O[C@H](n4cnc5c(N)ncnc54)[C@@H](O)[C@H]3F)[C@@H](O)[C@H]2O)n1` ?
26

Which measured Positive cells value corresponds to `NC(=O)c1csc([C@H]2O[C@@H](COP(=O)(O)OP(=O)(O)OC[C@H]3O[C@@H](n4cnc5c(N)ncnc54)[C@H](O)[C@@H]3O)[C@H](O)[C@@H]2O)n1` ?
70

Which measured Positive cells value corresponds to `NC(=O)c1csc([C@@H]2O[C@H](COP(=O)(O)CP(=O)(O)OC[C@@H]3O[C@H](n4cnc5c(N)ncnc54)[C@@H](O)[C@H]3O)[C@@H](O)[C@H]2O)n1` ?
35

Which measured Positive cells value corresponds to `NC(=O)c1cccc([C@@H]2O[C@H](COP(=O)(O)CP(=O)(O)OC[C@@H]3O[C@H](n4cnc5c(N)ncnc54)[C@H](F)[C@H]3O)[C@@H](O)[C@H]2O)c1` ?
9

Which measured Positive cells value corresponds to `NC(=O)c1csc([C@@H]2O[C@H](COP(=O)(O)CP(=O)(O)OC[C@@H]3O[C@H](n4cnc5c(N)ncnc54)[C@H](F)[C@H]3O)[C@@H](O)[C@H]2O)n1` ?
9.5

Which measured Positive cells value corresponds to `NC(=O)c1csc([C@@H]2O[C@H](COP(=O)(O)OP(=O)(O)OC[C@@H]3O[C@H](n4cnc5c(N)ncnc54)[C@@H](F)[C@H]3O)[C@@H](O)[C@H]2O)n1` ?
56

Which measured Positive cells value corresponds to `NC(=O)c1csc([C@@H]2O[C@H](COP(=O)(O)C(F)(F)P(=O)(O)OC[C@@H]3O[C@H](n4cnc5c(N)ncnc54)[C@@H](O)[C@H]3O)[C@@H](O)[C@H]2O)n1` ?
48

Which measured Positive cells value corresponds to `NC(=O)c1csc([C@@H]2O[C@H](CO)[C@@H](O)[C@H]2O)n1` ?
80

Which measured Positive cells value corresponds to `NC(=O)c1csc([C@@H]2O[C@H](COP(=O)(O)C(F)(F)P(=O)(O)OC[C@@H]3O[C@H](n4cnc5c(N)ncnc54)[C@H](F)[C@H]3O)[C@@H](O)[C@H]2O)n1` ?
40

These data points were gathered from ChEMBL document CHEMBL1130108.
